For each record, write down the corresponding z-score.
# MEASUREMENT NOTES: resazurin metabolic signal in HepG2 cells – cell-based, resazurin fluorescence, 24 h, PK04 Diversity Set, profiling panel (AID 1172); further: test concentration not given here
# CONDITION INFO: HepG2 viability, higher = more signal

COMPOUND	z-score
CC(C)=CCCC(C)=CC(O)C1C=CC2C(=O)NC(=O)C2N1Nc1ccc(Cl)cc1Cl (configuration not stated)	-1.66

Would you mind listing z-score for each of the following compounds?
1. CCCCCCc1nc(-c2ccc(-c3ccc(Cl)c(Cl)c3)o2)cc2c1[Si](C(C)C)(C(C)C)OC2
2. COCCOC(=O)N1C(=O)[C@@]2(c3cc(C#CCCO)ccc31)[C@H](c1ccc(OCCO)cc1)N1[C@H](c3ccccc3)[C@H](c3ccccc3)OC(=O)[C@H]1[C@@H]2C(=O)N1CCCCCCC1
3. CC(C)N1C(=O)c2ccccc2[C@](C)(C(=O)NCC(F)(F)F)[C@@H]1c1ccc(CO)cc1
4. COc1ccc([Si](C)(C)[C@H]2[C@H](CCO)O[C@@]3(C(=O)N(Cc4ccc(NC(=O)[C@H](C)O)cc4)c4ccccc43)[C@@H]2C)cc1
5. CC(C)NC(=O)[C@@H]1c2ccccc2C(=O)N(Cc2ccc(OC(F)(F)F)cc2)[C@H]1c1ccc(CO)cc1
6. COC(=O)C1(Cc2ccccc2)C=C2C(=C(C)C(=O)C2C)CN1 (configuration not stated)

Reply |
[0.373, -0.21, -0.116, -4.93, -1.14, -0.896]

meta.source: PubChem BioAssay
